Source of measurements: PubChem BioAssay

method: ovarian cancer cell viability with rucaparib, profiling panel, oncology-focused library, rucaparib conditional (AID 1508598)
study.conditions: patient-derived ovarian cancer cells, CellTiter-Glo viability, 144 h; at 1.25 µM; OCI-P5x cells; with rucaparib 20 µM; stronger effect = lower value; 100% = cells with rucaparib alone
The following compounds are listed with their measured viability values.
observable: viability (%)

compound.structure.string	observable	result.units	readout.value
NC(=O)Nc1sc(-c2ccc(F)cc2)cc1C(N)=O	viability	%	92.8
CN(C)CCCn1cc(C2=C(c3c[nH]c4ccccc34)C(=O)NC2=O)c2ccccc21	viability	%	116
O=C(O)c1ccc(-c2c[nH]c3ncc(-c4ccccc4)cc23)cc1C1CCCC1	viability	%	93.8
Cn1cc(C2=C(c3ccc(Cl)cc3Cl)C(=O)NC2=O)c2ccccc21	viability	%	96.3
